The entries below are paired with their reported melting point.
assay-metric: melting point

[
  {
    "compound": "CCOC(=O)N1CCC2(CC1)OC(c1ccccc1)c1ccccc12 (centres undefined)",
    "assay-metric": "melting point",
    "result": "115 to 119 °C"
  },
  {
    "compound": "CCOC(=O)CC(O)CC(O)C=Cc1c(-c2ccccc2)ccnc1C (centres undefined)",
    "assay-metric": "melting point",
    "result": "85 to 86 °C"
  },
  {
    "compound": "O=C(C=Cc1cccc(-c2ccccc2)c1)Nc1ccc(CN2CCCCC2)cc1",
    "assay-metric": "melting point",
    "result": "159 to 160 °C"
  },
  {
    "compound": "CC12CCC(O)CC1CCC1C2CCC2(C)C1CCC2(SCc1ccccc1)SCc1ccccc1 (centres undefined)",
    "assay-metric": "melting point",
    "result": "184 to 185 °C"
  },
  {
    "compound": "CCc1nc2c(N)nc3cc(-c4ccncc4)ccc3c2n1CC(C)(C)O",
    "assay-metric": "melting point",
    "result": "> 250 °C"
  },
  {
    "compound": "CC(OS(=O)(=O)C(F)(F)F)=C(C(=O)OCc1ccccc1)N1C(=O)[C@@H](N2C(=O)c3ccccc3C2=O)[C@H]1COS(C)(=O)=O",
    "assay-metric": "melting point",
    "result": "51 to 55 °C"
  },
  {
    "compound": "COC(CN(C)c1nccc(Oc2ccc(NC(=O)c3cc(F)cc(N4CCOCC4)c3)c3ccccc23)n1)OC",
    "assay-metric": "melting point",
    "result": "92 to 94 °C"
  },
  {
    "compound": "Cc1cc(CSCCNC(=C[N+](=O)[O-])NCC(O)c2cccc(Br)c2)sc1CN(C)C (centres undefined)",
    "assay-metric": "melting point",
    "result": "104 to 106 °C"
  },
  {
    "compound": "O=C(CC1=C(n2nc(-c3c(-c4ccccc4)nn4ccccc34)ccc2=O)CCCC1)N1CCNCC1",
    "assay-metric": "melting point",
    "result": "208 to 209 °C"
  }
]

----------
melting point values, listed per item
assay-metric: melting point

[
  {
    "compound": "Cc1c(-c2nnn[nH]2)oc2c(c1=O)CS(=O)(=O)c1ccccc1-2",
    "assay-metric": "melting point",
    "result": "268 to 270 °C"
  },
  {
    "compound": "O=C(Nc1ccc(Cl)c(C(F)(F)F)c1)Nc1ccccc1P(=O)(O)O",
    "assay-metric": "melting point",
    "result": "153 to 157 °C"
  },
  {
    "compound": "NC(=O)CCCCn1ccc(NC(N)=NCC(F)(F)F)n1",
    "assay-metric": "melting point",
    "result": "130 °C"
  },
  {
    "compound": "Nc1ccccc1C(=O)NO",
    "assay-metric": "melting point",
    "result": "140 to 142 °C"
  },
  {
    "compound": "COc1cc(/C=C/C(=O)/C=C/c2ccc(OC(F)(F)F)cc2)ccc1O",
    "assay-metric": "melting point",
    "result": "93 to 95 °C"
  },
  {
    "compound": "C#CCN1C(=O)NC(C)(C)C1=O",
    "assay-metric": "melting point",
    "result": "156 to 160 °C"
  },
  {
    "compound": "CC(C)(C)OC(=O)Nc1nc(C(=CC(C)(C)C(=O)OCc2ccccc2)C(=O)O)cs1",
    "assay-metric": "melting point",
    "result": "175 to 177 °C"
  },
  {
    "compound": "O=C(CN1C(=O)C2(COc3cc(Cl)ccc32)c2ccccc21)Nc1ccccc1F (stereo not given)",
    "assay-metric": "melting point",
    "result": "70 to 75 °C"
  },
  {
    "compound": "Cc1nc(N2CCC(Cc3ccc(OC(F)(F)F)cc3)C2=O)sc1C(=O)NCc1ccc(F)cc1 (stereo not given)",
    "assay-metric": "melting point",
    "result": "165 to 166 °C"
  },
  {
    "compound": "CSC(=Nc1ccc(Cl)c(Cl)c1)NS(C)(=O)=O",
    "assay-metric": "melting point",
    "result": "122 to 125 °C"
  }
]
